- Tested on: MRSA COL (MB5393)
- assay remarks: TarO Inhibitor/β-Lactam Synergy Assay
- Format: cell-based, Staphylococcus aureus
- study conditions: Staphylococcus aureus, TarO inhibitor alone, 20 hours, OD600, 95% growth inhibition, read-out: MITC95 TarO inhibitor alone, Bacteria: SA_MB5393
measure name: IC95

These recorded examples may help you get a feel for the data.
>>> result("CCN(C(=O)CCn1c2ccc(C(F)(F)F)cc2nc1[C@H]1CC[C@H](CC)CC1)C1CCCCC1")
"> 200 µM"
>>> result("CCN(C(=O)CCn1c2cc(C#N)ccc2nc1[C@H]1CC[C@H](CC)CC1)C1CCCCC1")
"> 200 µM"
>>> result("CCC1CCN(Cc2nc3ccccc3n2CCC(=O)N(CC)C2CCCCC2)CC1")
"> 200 µM"
>>> result("CCCOC(=O)N1CCCC(c2nc3ccccc3n2CCC(=O)N(CC)C2CCCCC2)C1 (stereo not drawn)")
"100 µM"

Q. For MRSA COL (MB5393), provide IC95 of CCN(C(=O)CCn1c(C2CCCN(c3cccc(OC)n3)C2)nc2ccccc21)C1CCCCC1 (stereo not drawn) please.
A. 100 µM
